- Test system: 889142-216-R-J1-PDC complex spheroid viability;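 note: spheroids exposed to compounds for seven days; 100% = DMSO vehicle control viability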
- Assay text: Anticancer human tumor 889142-216-R-J1-PDC patient-derived bladder carcinoma cell line growth inhibition [POLQ]
- Run conditions: second compound 0.1 µM; first compound 0.316 µM; stronger effect = lower value
Lab note: compare viability, T/C with 40%, writing label 1 if less and label 0 if equal or more.

[
  {
    "Compound": "CC(C)n1c(=O)n(C)c2cnc3cc(F)c(-c4ccc(OCCCN5CCCCC5)nc4)cc3c21 + Cc1cccc(N(C)C(=O)C2C(O)CCN2c2nc(C)cc(C(F)(F)F)c2C#N)c1",
    "Category": "label 0"
  },
  {
    "Compound": "CCCS(=O)(=O)Nc1ccc(F)c(C(=O)c2c[nH]c3ncc(-c4ccc(Cl)cc4)cc23)c1F + Cc1cccc(N(C)C(=O)C2C(O)CCN2c2nc(C)cc(C(F)(F)F)c2C#N)c1",
    "Category": "label 0"
  },
  {
    "Compound": "CC1COCCN1c1cc(C2(S(C)(=N)=O)CC2)nc(-c2ccnc3[nH]ccc23)n1 (centres undefined) + Nc1ccc(C#CCN(C(=O)Cc2ncc(C(F)(F)F)cc2C(F)(F)F)c2ccc(F)cc2)nn1",
    "Category": "label 0"
  },
  {
    "Compound": "COc1cccc2c1C(=O)c1c(O)c3c(c(O)c1C2=O)CC(O)(C(=O)CO)CC3OC1CC(N)C(O)C(C)O1 (centres undefined) + Cc1cccc(N(C)C(=O)C2C(O)CCN2c2nc(C)cc(C(F)(F)F)c2C#N)c1",
    "Category": "label 1"
  },
  {
    "Compound": "C=CC(=O)N1CCN(c2nc(=O)n(-c3c(C)ccnc3C(C)C)c3nc(-c4c(O)cccc4F)c(F)cc23)C(C)C1 (centres undefined) + Cc1cccc(N(C)C(=O)C2C(O)CCN2c2nc(C)cc(C(F)(F)F)c2C#N)c1",
    "Category": "label 0"
  },
  {
    "Compound": "C#Cc1c(F)ccc2cc(O)cc(-c3ncc4c(N5CC6CCC(C5)N6)nc(OCC56CCCN5CC(F)C6)nc4c3F)c12 (centres undefined) + Nc1ccc(C#CCN(C(=O)Cc2ncc(C(F)(F)F)cc2C(F)(F)F)c2ccc(F)cc2)nn1",
    "Category": "label 0"
  },
  {
    "Compound": "CCc1c2c(nc3ccc(O)cc13)-c1cc3c(c(=O)n1C2)COC(=O)[C@]3(O)CC + Nc1ccc(C#CCN(C(=O)Cc2ncc(C(F)(F)F)cc2C(F)(F)F)c2ccc(F)cc2)nn1",
    "Category": "label 1"
  }
]
